Below, each entry is listed with its recorded pKd.
# System tested: T1, TrkA-IgG (UniProt P04629 33-423, limits assumed)
# T1 construct: also called specific antigen TrkA-IgG; not shown: IgG part of the fusion
# T1 sequence (P04629 33-423 limits assumed): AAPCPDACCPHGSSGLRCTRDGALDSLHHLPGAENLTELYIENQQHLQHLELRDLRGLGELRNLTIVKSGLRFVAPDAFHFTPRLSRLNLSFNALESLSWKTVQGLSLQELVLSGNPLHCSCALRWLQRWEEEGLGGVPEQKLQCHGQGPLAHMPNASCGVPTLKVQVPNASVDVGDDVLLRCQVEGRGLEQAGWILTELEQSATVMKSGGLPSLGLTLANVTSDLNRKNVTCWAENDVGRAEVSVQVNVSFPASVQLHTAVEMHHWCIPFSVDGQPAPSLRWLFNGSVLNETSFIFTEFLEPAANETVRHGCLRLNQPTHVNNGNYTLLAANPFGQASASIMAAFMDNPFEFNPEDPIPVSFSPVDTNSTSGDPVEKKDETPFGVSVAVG
# Protocol summary: SPR (BIACORE 2000), TrkA-IgG immobilised on CM-5 chip, 'separated 1:1' fit
Conceptually, pKd converts a concentration in mol/L into minus its log10.

Illustrative cases are given below, each with its answer.
Binder	pKd
HuMNACWOv (antibody, V domains shown, Variant of HuMNACWO whose heavy chain CDR3 is replaced with that of muMNACEP; also called hVHWOv/hVLWO; HuVHWOv/HuVLWO) VH: EVQLLESGGGLVQPGGSLRLSCAASGFTFSTYTMSWARQAPGKGLEWVAYISKGGGSTYYPDTVKGRFTISRDNSKNTLYLQMNSLRAEDSAVYYCARGAMYGNDFFYPMDYWGQGTLVTVSS VL: DIVLTQSPSSLSASVGDRVTITCSASSSVSYMHWYQQKPGQAPKLLIYTTSNLASGVPSRFSGSGSGTDYTLTISSLQPEDVATYYCHQWSSYPWTFGGGTKVEIK	8.61
ChimMNAC13 (antibody, V domains shown, Corresponds to muMNACEP but has human constant regions instead of mouse constant regions; also called chimNINAC13; mVHEP/mVLEP) VH: EVKLMESGGGLVQPGGSLKLSCAASGFTFSTYTMSWARQTPEKRLEWVAYISKGGGSTYYPDTVKGRFTISRDNAKNTLYLQMSSLKSEDTALYYCARGAMYGNDFFYPMDYWGQQTSVTVSS VL: DIVLSQSPAIMSASLGEEITLTCSASSSVSYMHWYQQKSGTSPKLLITTTSNLASGVPSRFSGSGSGTFYSLTISSVEAEDAADYYCHQWSSYPWTFGGGTKLEIK	9.82
BXhVH3VL3 (antibody, human IgG1, V domains shown, Human IgG1 constant regions (IgG1 expression vectors); also called hVH3/hVL3) VH: EVQLLESGGGLVQPGGSLRLSCAASGFTFSTYTMSWVRQAPGKRLEWVAYISKGGGSTYYPDTVKGRFTISRDNSKNTLYLQMNSLRAEDTAVYYCARGAMYGNDFFYPMDYWGQGTTVTVSS VL: QIVLTQSPATLSLSPGERATLSCSASSSVSYMHWYQQKPGQSPRLLIYTTSNLASGIPSRFSGSGSGTFYTLTISSLEPEDFAVYYCHQWSSYPWTFGGGTKLEIK	8.84
muMNACEP (antibody, V domains shown, Murine monoclonal antibody as disclosed in EP1181318; also called murine antibody MNAC13; MNAC13) VH: EVKLMESGGGLVQPGGSLKLSCAASGFTFSTYTMSWARQTPEKRLEWVAYISKGGGSTYYPDTVKGRFTISRDNAKNTLYLQMSSLKSEDTALYYCARGAMYGNDFFYPMDYWGQQTSVTVSS VL: DIVLSQSPAIMSASLGEEITLTCSASSSVSYMHWYQQKSGTSPKLLITTTSNLASGVPSRFSGSGSGTFYSLTISSVEAEDAADYYCHQWSSYPWTFGGGTKLEIK	9.60

Recorded pKd of BXhVH5VL3 (antibody, human IgG1, V domains shown, Human IgG1 constant regions (IgG1 expression vectors); also called hVH5/hVL3) VH: EVKLLESGGGLVQPGGSLRLSCAASGFTFSTYTMSWVRQTPGKRLEWVAYISKGGGSTYYPDTVKGRFTISRDNSKNTLYLQMNSLRAEDTAVYYCARGAMYGNDFFYPMDYWGQGTTVTVSS VL: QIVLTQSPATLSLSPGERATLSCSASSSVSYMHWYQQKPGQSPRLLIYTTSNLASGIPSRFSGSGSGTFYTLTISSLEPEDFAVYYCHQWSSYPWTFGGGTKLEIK , please. 9.18
